# SYSTEM NAME: N-terminal HiBiT tagged BCL6 (Homo sapiens)
# Construct: expressed in transfected cells; host or cells: HT1080 (ATCC CCL-121), stably transduced with lentivirus pLV-UBC-N-HiBiT-BCL6-PGK-puro
# EXPERIMENTAL DETAILS: HiBiT based degradation assay
# Type: cell-based
# ASSAY CONTEXT: HT1080 cells expressing N-terminal HiBiT tagged BCL6; 5 hours of incubation; BCL6 degradation normalized with DMSO control
ASSAY METRIC: Ymin (5 hr)

COMPOUND	SYSTEM NAME	ENDPOINT VALUE
CNC(=O)COc1cc2cc(Nc3nc(N4CCN(CC5CCN(c6cccc7c(C8CCC(=O)NC8=O)nn(C)c67)CC5)[C@@H](CO)C4)ncc3Cl)cnc2n(C(C)C)c1=O (some centres unmarked) [Compound 146b]	N-terminal HiBiT tagged BCL6 (Homo sapiens)	++++ (Ymin < 30%)
CNC(=O)COc1cc2cc(Nc3nc(N4CCC(CN5CCCN(c6ccc7c(C8CCC(=O)NC8=O)nn(C)c7c6)CC5)CC4)ncc3Cl)cnc2n(C(C)C)c1=O (centres unmarked) [Compound 235]	N-terminal HiBiT tagged BCL6 (Homo sapiens)	+++ (30% ≤ Ymin < 50%)
CNC(=O)COc1cc2cc(Nc3nc(N4CCC(Oc5cccc6c(C7CCC(=O)NC7=O)nn(C)c56)CC4)ncc3Cl)cnc2n(C)c1=O (centres unmarked) [Compound 148]	N-terminal HiBiT tagged BCL6 (Homo sapiens)	+++ (30% ≤ Ymin < 50%)
CNC(=O)COc1cc2cc(Nc3nc(N4CCC(CN5C[C@@H]6C[C@H]5CN6c5cccc6c(C7CCC(=O)NC7=O)nn(C)c56)CC4)ncc3Cl)cnc2n(C(C)C)c1=O (some centres unmarked) [Compound 175b]	N-terminal HiBiT tagged BCL6 (Homo sapiens)	+++ (30% ≤ Ymin < 50%)
CNC(=O)COc1cc2cc(Nc3nc(N4CCC(OC5CCN(c6cccc7c(C8CCC(=O)NC8=O)nn(C)c67)CC5)CC4)ncc3Cl)cnc2n(C(C)C)c1=O (centres unmarked) [Compound 225]	N-terminal HiBiT tagged BCL6 (Homo sapiens)	++++ (Ymin < 30%)

These entries and their values trace back to patent US20260241012A1.
